Here the recorded Change is given for each entry.
- Organism: Mus musculus
- Assay remarks: Analgesic response measured as percentage change in reaction time (dose 1 ug given intracervically) after 5 min in mice
- Type: functional
Measured quantity: Change (%)

[[record]]
molecule = "COC(=O)[C@H](Cc1c(Sc2ccccc2[N+](=O)[O-])[nH]c2ccccc12)NC(=O)C(O)[C@@H](N)CCCCN (stereo not given in full)"
value_modifier = "="
result = 25

[[record]]
molecule = "COC(=O)[C@H](Cc1c(Sc2ccccc2[N+](=O)[O-])[nH]c2ccccc12)NC(=O)[C@@H](O)[C@H](N)CCCCN"
value_modifier = "="
result = 124

[[record]]
molecule = "COC(=O)[C@@H](Cc1c(Sc2ccccc2[N+](=O)[O-])[nH]c2ccccc12)NC(=O)[C@H](O)[C@@H](N)CCCCN"
value_modifier = "="
result = 19

[[record]]
molecule = "COC(=O)[C@@H](Cc1c(Sc2ccccc2[N+](=O)[O-])[nH]c2ccccc12)NC(=O)C(O)[C@H](N)CCCCN (stereo not given in full)"
value_modifier = "="
result = 19

[[record]]
molecule = "COC(=O)[C@H](Cc1c(Sc2ccccc2[N+](=O)[O-])[nH]c2ccccc12)NC(=O)[C@@H](N)CCCCN"
value_modifier = "<"
result = 130

